biological target: T1, Cynomolgus CD3εδ Fc heterodimer (Cy CD3ε Fc + CD3δ Fc-HIS) (cynomolgus, UniProt Q95LI5 22-117; Q95LI8 22-100); test: SPR (Biacore), Fab over immobilized CD3εδ Fc, pH 7.4
T1 construct: range 22-117;range 22-100; Made in HEK 293 cells with a heterologous signal peptide; also called Cy CD3εδ-Fc; cyno CD3εδ Fc; not shown: Fc; Fc followed by HIS tag
T1 sequence (Q95LI5 22-117, stated change not applied, form in doubt, chain 1 of 2): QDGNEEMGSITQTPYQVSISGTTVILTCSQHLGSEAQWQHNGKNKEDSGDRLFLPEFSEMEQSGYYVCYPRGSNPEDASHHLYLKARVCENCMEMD
T1 sequence (Q95LI8 22-100, stated change not applied, form in doubt, chain 2 of 2): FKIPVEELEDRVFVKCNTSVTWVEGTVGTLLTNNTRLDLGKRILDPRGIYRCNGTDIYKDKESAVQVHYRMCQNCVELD
Entries and their Kd
The answer is to be given in nM; state only the numeric part.

Binder	Kd, nM
Antibody No. V010 (ADI-70327) Fab (Fab, V domains shown, Fab by papain digestion of the IgG1) VH: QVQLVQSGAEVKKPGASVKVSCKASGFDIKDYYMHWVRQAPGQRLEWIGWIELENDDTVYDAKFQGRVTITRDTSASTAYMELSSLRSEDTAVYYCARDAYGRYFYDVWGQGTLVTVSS VL: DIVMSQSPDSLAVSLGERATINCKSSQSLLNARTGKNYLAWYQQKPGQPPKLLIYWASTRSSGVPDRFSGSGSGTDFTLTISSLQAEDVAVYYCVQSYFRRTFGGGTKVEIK	0.45
Antibody No. V016 (ADI-76359) Fab (Fab, V domains shown, Fab by papain digestion of the IgG1) VH: QVQLVQSGAEVKKPGASVKVSCKASGFDIKDYYMHWVRQAPGQRLEWMGWIDLENANTIYDAKFQGRVTITRDTSASTAYMELSSLRSEDTAVYYCGRDAYGRYFYDVWGQGTLVTVSS VL: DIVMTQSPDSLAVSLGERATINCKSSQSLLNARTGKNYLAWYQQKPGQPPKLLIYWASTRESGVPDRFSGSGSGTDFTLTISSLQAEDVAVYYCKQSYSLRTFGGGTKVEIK	16

Next binder, Kd to be filled in.
# input Any idea what its Kd is? The binder is Antibody No. V017 (ADI-76360) Fab (Fab, V domains shown, Fab by papain digestion of the IgG1) VH: QVQLVQSGAEVKKPGASVKVSCKASGFNIKDYYMHWVRQAPGQRLEWMGWIDLENADTIYDAKFQGRVTITRDTSASTAYMELSSLRSEDTAVYYCGRDAYGRYFYDVWGQGTLVTVSS VL: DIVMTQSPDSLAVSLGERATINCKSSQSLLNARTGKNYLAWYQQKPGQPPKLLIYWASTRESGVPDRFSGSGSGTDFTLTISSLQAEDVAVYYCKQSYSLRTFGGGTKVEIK
# output 16

Provenance of the data: patent US20240317858A1
